Reference source: ChEMBL document CHEMBL1201862

Overview of recorded GI50 for various compounds
Tested on: Malme-3M
Assay: NCI tumour cell line growth inhibition, 48 h
Activity calls are given as the source filed them. Rule as the data show it: active = GI50 up to about 1.1 µM and inactive = higher.

compound	GI50
CC1CC(C[N+](=O)[O-])CC2(C1)OCCO2 (centres undefined)	> 100 µM (inactive)
COc1ccc(/C=C(\C(C)=O)C(=O)Nc2ccccc2)cc1	> 100 µM (inactive)
c1ccc2c(c1)Nc1c3ccccc3nc3cccc-2c13	1.66 µM (inactive)
Cc1cn([C@@H]2O[C@H](CO)[C@@H](O)[C@@H]2O)c(=O)[nH]c1=O	> 1000 µM (inactive)
O=c1[nH]c2[nH]c(-c3ccc(Br)cc3)cc2c2ccccc12	> 100 µM (inactive)
CCOP(=O)(OCC)/C(=C/c1ccccc1)CC(C)=O	> 100 µM (inactive)
Cc1cc2[nH]c3c(C#N)c4c(c(=O)n3c2cc1C)CCCC4	> 100 µM (inactive)
Cc1cc2c(cc1C)[n+]([O-])c(C(=O)CC(=O)C(=O)Nc1ccccc1C(C)C)c(C)[n+]2[O-]	> 100 µM (inactive)
N#Cc1ccccc1NC(=O)/C(=N\Nc1ccc([N+](=O)[O-])cc1)C1C(=O)NC(=O)NC1=O	> 100 µM (inactive)
